Experiment: inhibitors of TNFa-induced NFkB p65 translocation, primary screen, imaging, HUVEC, MLSMR starter and 10KST1 sets (AID 438);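 note: compound added about 3h40 before a 20 min TNFalpha stimulation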
Details: HUVEC TNFa-induced p65 nuclear translocation; measured here: nuclei count (cytotoxicity indicator), at 2.08 µM
// label = yes if cell count is not less than 600, otherwise no

compound=CCOc1cc(NC(=O)c2ccco2)c(OCC)cc1NC(=O)CCc1ccc(OC)cc1 cat=yes
compound=CC(C)(C)C(=O)NC1CCN(C(=O)N2CCCC2)CC1 cat=yes
compound="CC1=C(C)[N+](=O)C2CCCCC2N1[O-] (stereo unspecified)" cat=yes
compound=O=C(CN1C(=O)c2ccccc2C1=O)Nc1ccccc1C(=O)N1CCCC1 cat=no
compound="CC1(C)CC(=O)CC(C2(O)C(=O)N(Cc3ccccc3)c3ccccc32)O1 (stereo unspecified)" cat=no
compound=CCN(CC)c1ccc(NC(=O)CN2C(=O)CC(C)(C)S(=O)(=O)c3ccccc32)c(C)c1 cat=yes
compound=COC(=O)Cc1c(C)nc2nc[nH]n2c1=O cat=yes
compound=c1ccc(-c2cnc(CSc3ncnc4sccc34)o2)cc1 cat=no
compound=Cc1nnc(SCc2ccccc2)n1N cat=no
compound=Cc1ccc(Cc2c(C)nc3c(C(=O)O)cnn3c2C)cc1 cat=no
